- target_or_system: EGFR (Δ746-750) (Homo sapiens (Human), UniProt P00533, DEL746-750)
- Sequence (P00533 other isoform, or with tags, fused parts or gaps del 1-668/del 746-750 limits assumed): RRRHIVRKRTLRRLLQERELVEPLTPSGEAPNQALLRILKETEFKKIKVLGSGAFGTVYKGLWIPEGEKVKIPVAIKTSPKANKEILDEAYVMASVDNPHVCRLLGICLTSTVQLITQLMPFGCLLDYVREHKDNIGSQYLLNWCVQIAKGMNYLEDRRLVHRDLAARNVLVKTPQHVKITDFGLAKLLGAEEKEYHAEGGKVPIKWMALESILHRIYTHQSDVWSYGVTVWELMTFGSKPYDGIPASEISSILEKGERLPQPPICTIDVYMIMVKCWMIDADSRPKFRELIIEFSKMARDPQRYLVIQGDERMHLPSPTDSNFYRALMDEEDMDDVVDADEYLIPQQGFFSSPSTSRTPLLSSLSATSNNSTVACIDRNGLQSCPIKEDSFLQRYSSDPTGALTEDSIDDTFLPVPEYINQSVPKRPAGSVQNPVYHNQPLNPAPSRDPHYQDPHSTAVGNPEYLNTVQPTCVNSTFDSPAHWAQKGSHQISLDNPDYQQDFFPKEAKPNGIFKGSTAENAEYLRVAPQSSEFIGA
- test_summary: HotSpot radiometric kinase assay, EGFR Δ746-750
- experimental_setup: radiometric filter-binding, 10 μM ATP
pIC50: −log10 of the molar value.
pIC50 of 7 or higher: condition met. Under 7: condition not met.

compound: Cn1ncc2c1OCCCOc1ccc(C(=O)N3CCCC3)cc1/C=C/c1n[nH]c3cnc-2cc13 [Cpd. 72]
category: condition met

compound: CN1CCN(C(=O)c2ccc3c(c2)/C=C/c2n[nH]c4cnc(cc24)-c2cnn(C)c2COCCO3)CC1 [Cpd. 96]
category: condition not met

compound: CCNC(=O)c1ccc2c(c1)OCCOCc1c(cnn1C)-c1cc3c(n[nH]c3cn1)/C=C/2 [Cpd. 84]
category: condition not met

compound: CN1CC[C@@H](NC(=O)c2ccc3c(c2)OCCOCc2c(cnn2C)-c2cc4c(n[nH]c4cn2)/C=C/3)C1 [Cpd. 87]
category: condition met

compound: CCc1c2c(nn1C)C(=O)N(C)CCOc1c[nH]c(=O)cc1-c1cc3c(n[nH]c3cn1)/C=C/2 [Cpd. 38]
category: condition not met

compound: COC(=O)c1ccc2c(c1)OCCCOc1c(cnn1C)-c1cc3c(n[nH]c3cn1)/C=C/2 [Cpd. 67]
category: condition not met

compound: Cc1ccc2c(n1)/C=C/c1n[nH]c3cnc(nc13)-c1cnn(C)c1C(C)OCCO2 (stereo not shown) [Cpd. 65]
category: condition not met

compound: COC(=O)c1ccc2c(c1)/C=C/c1n[nH]c3cnc(cc13)-c1cnn(C)c1COCCO2 [Cpd. 75]
category: condition met

compound: CN(C)CCNC(=O)c1ccc2c(c1)/C=C/c1n[nH]c3cnc(cc13)-c1cnn(C)c1OCCCO2 [Cpd. 71]
category: condition met

compound: Cn1ncc2c1OCCCOc1cc(C(=O)O)ccc1/C=C/c1n[nH]c3cnc-2cc13 [Cpd. 73]
category: condition met

compound: Cn1ncc2c1OCCCOc1ccccc1/C=C/c1n[nH]c3ccc-2nc13 [Cpd. 2]
category: condition met

compound: CC(C)NC(=O)c1ccc2c(c1)OCCCOc1c(cnn1C)-c1cc3c(n[nH]c3cn1)/C=C/2 [Cpd. 77]
category: condition met

compound: Cn1ncc2c1COCCOc1ccc(C(=O)O)cc1/C=C/c1n[nH]c3cnc-2cc13 [Cpd. 92]
category: condition met

###

- target_or_system: EGFR (Δ746-750) (Homo sapiens (Human), UniProt P00533, DEL746-750)
- test_summary: HotSpot radiometric kinase assay, EGFR Δ746-750
- experimental_setup: radiometric filter-binding, 10 μM ATP
property_name: IC50 (nM)

chem_smiles: CNC(=O)c1ccc2c(c1)/C=C/c1n[nH]c3cnc(cc13)-c1cnn(C)c1OCCCO2
quantitative_readout: 15.6

chem_smiles: CN1CCC(NC(=O)c2ccc3c(c2)OCCCOc2c(cnn2C)-c2cc4c(n[nH]c4cn2)/C=C/3)CC1
quantitative_readout: 5.3

chem_smiles: CCc1nn(C)c2c1/C=C/c1n[nH]c3cnc(cc13)-c1cc(F)ccc1OCCN(C)C2=O
quantitative_readout: 45.5

chem_smiles: CN(C)CCNC(=O)c1ccc2c(c1)/C=C/c1n[nH]c3cnc(cc13)-c1cnn(C)c1COCCO2
quantitative_readout: 16.8

chem_smiles: CN1CC[C@@H](NC(=O)c2ccc3c(c2)OCCCOc2c(cnn2C)-c2cc4c(n[nH]c4cn2)/C=C/3)C1
quantitative_readout: 28.3

chem_smiles: COC(=O)c1ccc2c(c1)OCCOCc1c(cnn1C)-c1cc3c(n[nH]c3cn1)/C=C/2
quantitative_readout: 1000

chem_smiles: CN1CCC(CNC(=O)c2ccc3c(c2)/C=C/c2n[nH]c4cnc(cc24)-c2cnn(C)c2COCCO3)CC1
quantitative_readout: 17.6

chem_smiles: CN1CCOCCN(c2ccc(F)c(Cl)c2)c2cc3c(n[nH]c3cn2)/C=C/c2cn(C)nc2C1=O
quantitative_readout: 84.4

###

- target_or_system: EGFR Δ746-750/T790M mutant (Homo sapiens (Human), UniProt P00533, DEL746-750/T790M)
- Sequence (P00533 other isoform, or with tags, fused parts or gaps T790M/del 1-668/del 746-750 limits assumed): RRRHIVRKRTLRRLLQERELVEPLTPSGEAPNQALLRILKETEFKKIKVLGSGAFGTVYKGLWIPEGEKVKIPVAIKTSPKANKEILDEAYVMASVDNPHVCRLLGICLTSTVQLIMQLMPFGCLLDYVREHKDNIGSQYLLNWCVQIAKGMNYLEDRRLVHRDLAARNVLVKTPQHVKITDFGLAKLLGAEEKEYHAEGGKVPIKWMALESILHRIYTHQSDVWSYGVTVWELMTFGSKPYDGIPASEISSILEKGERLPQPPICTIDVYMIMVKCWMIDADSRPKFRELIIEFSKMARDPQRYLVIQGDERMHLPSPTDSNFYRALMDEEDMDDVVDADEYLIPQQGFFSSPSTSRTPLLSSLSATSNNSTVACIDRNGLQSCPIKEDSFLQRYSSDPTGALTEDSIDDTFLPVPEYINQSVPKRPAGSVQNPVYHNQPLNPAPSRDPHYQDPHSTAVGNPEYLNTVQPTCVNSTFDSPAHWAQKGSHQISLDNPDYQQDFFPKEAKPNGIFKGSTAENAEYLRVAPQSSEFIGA
- test_summary: HotSpot radiometric kinase assay, EGFR Δ746-750/T790M
- experimental_setup: radiometric filter-binding, 10 μM ATP
IC50 under 0.02 µM gets yes (1), anything at or over 0.02 µM gets no (0).

molecule: CCc1nn(C)c2c1/C=C/c1n[nH]c3cnc(cc13)-c1cc(F)ccc1OCCN(C)C2=O
target_or_system: EGFR Δ746-750/T790M mutant (Homo sapiens (Human), UniProt P00533, DEL746-750/T790M)
category: yes (1)
//
molecule: Cn1ncc2c1OCCCOc1ccccc1/C=C/c1n[nH]c3ccc-2nc13
target_or_system: EGFR Δ746-750/T790M mutant (Homo sapiens (Human), UniProt P00533, DEL746-750/T790M)
category: no (0)
//
molecule: Cc1ccc2c(n1)/C=C/c1n[nH]c3cnc(nc13)-c1cnn(C)c1C(C)OCCO2 (centres unmarked)
target_or_system: EGFR Δ746-750/T790M mutant (Homo sapiens (Human), UniProt P00533, DEL746-750/T790M)
category: no (0)
//
molecule: Cn1ncc2c1OCCCOc1ccccc1/C=C/c1n[nH]c3cnc-2cc13
target_or_system: EGFR Δ746-750/T790M mutant (Homo sapiens (Human), UniProt P00533, DEL746-750/T790M)
category: yes (1)
//
molecule: CN1CCOCCN(c2ccc(F)c(Cl)c2)c2cc3c(n[nH]c3cn2)/C=C/c2cn(C)nc2C1=O
target_or_system: EGFR Δ746-750/T790M mutant (Homo sapiens (Human), UniProt P00533, DEL746-750/T790M)
category: no (0)
//
molecule: Cn1ncc2c1COCCOc1ccccc1/C=C/c1n[nH]c3cnc-2cc13
target_or_system: EGFR Δ746-750/T790M mutant (Homo sapiens (Human), UniProt P00533, DEL746-750/T790M)
category: yes (1)
//
molecule: Cn1ncc2c1COCCOc1ccccc1/C=C/c1n[nH]c3cnc-2nc13
target_or_system: EGFR Δ746-750/T790M mutant (Homo sapiens (Human), UniProt P00533, DEL746-750/T790M)
category: no (0)
//
molecule: Cn1ncc2c1OCCCOc1ccccc1/C=C/c1n[nH]c3ccc-2cc13
target_or_system: EGFR Δ746-750/T790M mutant (Homo sapiens (Human), UniProt P00533, DEL746-750/T790M)
category: yes (1)

###

IC50: recorded values
- target_or_system: EGFR Δ746-750/C797S mutant (Homo sapiens (Human), UniProt P00533, C797S/DEL746-750)
- Sequence (P00533 other isoform, or with tags, fused parts or gaps C797S/del 1-668/del 746-750 limits assumed): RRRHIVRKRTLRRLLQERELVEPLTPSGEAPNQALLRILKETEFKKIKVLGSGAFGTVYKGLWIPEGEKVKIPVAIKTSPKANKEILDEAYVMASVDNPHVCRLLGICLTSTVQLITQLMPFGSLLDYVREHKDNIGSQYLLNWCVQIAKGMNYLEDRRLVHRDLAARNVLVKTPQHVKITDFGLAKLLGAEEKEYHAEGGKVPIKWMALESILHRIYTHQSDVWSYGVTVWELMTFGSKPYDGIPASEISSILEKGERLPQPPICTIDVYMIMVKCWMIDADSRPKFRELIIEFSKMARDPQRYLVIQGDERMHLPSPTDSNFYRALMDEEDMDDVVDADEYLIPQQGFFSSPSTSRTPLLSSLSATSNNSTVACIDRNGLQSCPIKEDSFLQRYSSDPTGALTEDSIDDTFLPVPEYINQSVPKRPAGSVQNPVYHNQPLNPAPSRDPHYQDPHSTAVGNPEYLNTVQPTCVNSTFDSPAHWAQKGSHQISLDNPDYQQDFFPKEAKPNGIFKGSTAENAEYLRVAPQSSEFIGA
- test_summary: HotSpot radiometric kinase assay, EGFR Δ746-750/C797S
- experimental_setup: radiometric filter-binding, 10 μM ATP

compound: Cn1ncc2c1OCCCOc1ccccc1/C=C/c1n[nH]c3ccc-2nc13 [Cpd. 2]
IC50: 16.2 nM

compound: CCc1nn(C)c2c1/C=C/c1n[nH]c3cnc(cc13)-c1cc(F)ccc1OCCN(C)C2=O [Cpd. 62]
IC50: 5.7 nM

compound: Cc1ccc2c(n1)/C=C/c1n[nH]c3cnc(nc13)-c1cnn(C)c1C(C)OCCO2 (centres unmarked) [Cpd. 65]
IC50: 34.1 nM

compound: Cn1ncc2c1COCCOc1ccccc1/C=C/c1n[nH]c3cnc-2nc13 [Cpd. 16]
IC50: 61.3 nM

compound: Cn1ncc2c1COCCOc1ccccc1/C=C/c1n[nH]c3cnc-2cc13 [Cpd. 63]
IC50: 7.7 nM

compound: Cn1ncc2c1OCCCOc1ccccc1/C=C/c1n[nH]c3cnc-2cc13 [Cpd. 1]
IC50: 4.8 nM

compound: Cn1ncc2c1OCCCOc1ccccc1/C=C/c1n[nH]c3ccc-2cc13 [Cpd. 3]
IC50: 24.4 nM

compound: CN1CCOCCN(c2ccc(F)c(Cl)c2)c2cc3c(n[nH]c3cn2)/C=C/c2cn(C)nc2C1=O [Cpd. 99]
IC50: 11.3 nM

###

Documented IC50 across a set of molecules
- target_or_system: EGFR L858R mutant (Homo sapiens (Human), UniProt P00533, L858R)
- Sequence (P00533 25-1210 L858R): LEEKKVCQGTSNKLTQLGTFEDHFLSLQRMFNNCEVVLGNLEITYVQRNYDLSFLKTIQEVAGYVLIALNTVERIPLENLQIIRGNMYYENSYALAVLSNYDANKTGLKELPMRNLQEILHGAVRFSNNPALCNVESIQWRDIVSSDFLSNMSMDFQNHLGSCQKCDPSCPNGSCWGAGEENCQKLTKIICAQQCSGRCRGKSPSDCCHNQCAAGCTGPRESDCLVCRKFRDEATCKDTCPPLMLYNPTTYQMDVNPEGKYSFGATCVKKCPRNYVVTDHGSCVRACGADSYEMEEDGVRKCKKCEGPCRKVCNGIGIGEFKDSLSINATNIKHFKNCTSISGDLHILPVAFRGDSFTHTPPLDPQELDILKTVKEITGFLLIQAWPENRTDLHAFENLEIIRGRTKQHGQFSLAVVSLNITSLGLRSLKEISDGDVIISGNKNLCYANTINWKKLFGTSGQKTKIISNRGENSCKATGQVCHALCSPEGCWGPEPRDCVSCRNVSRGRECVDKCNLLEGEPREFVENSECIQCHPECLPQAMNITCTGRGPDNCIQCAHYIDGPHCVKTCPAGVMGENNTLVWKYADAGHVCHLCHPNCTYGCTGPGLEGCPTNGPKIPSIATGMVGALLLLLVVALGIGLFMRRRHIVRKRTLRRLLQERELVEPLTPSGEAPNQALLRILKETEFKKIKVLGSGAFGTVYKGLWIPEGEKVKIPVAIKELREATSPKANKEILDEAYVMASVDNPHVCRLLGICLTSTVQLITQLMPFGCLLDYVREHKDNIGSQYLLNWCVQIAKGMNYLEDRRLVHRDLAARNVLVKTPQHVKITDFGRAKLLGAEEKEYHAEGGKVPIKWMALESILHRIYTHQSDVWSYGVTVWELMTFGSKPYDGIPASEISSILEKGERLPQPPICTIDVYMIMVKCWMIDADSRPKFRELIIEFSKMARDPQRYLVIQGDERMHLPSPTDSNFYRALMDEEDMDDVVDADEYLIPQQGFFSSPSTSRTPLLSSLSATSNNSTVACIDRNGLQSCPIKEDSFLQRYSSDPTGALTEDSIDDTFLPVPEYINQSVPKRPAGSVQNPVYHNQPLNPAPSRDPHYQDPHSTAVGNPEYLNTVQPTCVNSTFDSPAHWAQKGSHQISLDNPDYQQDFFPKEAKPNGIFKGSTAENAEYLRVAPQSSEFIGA
- test_summary: HotSpot radiometric kinase assay, EGFR L858R
- experimental_setup: radiometric filter-binding, 10 μM ATP

chem_smiles: Cn1ncc2c1OCCCOc1ccccc1/C=C/c1n[nH]c3ccc-2cc13
IC50: 374 nM
--
chem_smiles: Cn1ncc2c1OCCCOc1ccccc1/C=C/c1n[nH]c3ccc-2nc13
IC50: 258 nM
--
chem_smiles: CN(C)CCNC(=O)c1ccc2c(c1)/C=C/c1n[nH]c3cnc(cc13)-c1cnn(C)c1OCCCO2
IC50: 1.6 nM
--
chem_smiles: Cn1ncc2c1OCCCOc1ccccc1/C=C/c1n[nH]c3cnc-2cc13
IC50: 29.1 nM
--
chem_smiles: CN(C)CCNC(=O)c1ccc2c(c1)OCCOCc1c(cnn1C)-c1cc3c(n[nH]c3cn1)/C=C/2
IC50: 28.1 nM

Values compiled from patent US20240182487A1.
